# System: CCRIS mutagenicity, Ames/micronucleus/aberration tests
# assay-notes: CCRIS mutagenicity studies
# condition-details: Test System: AMES SALMONELLA TYPHIMURIUM; Strain/Indicator: TA98; Metabolic Activation: RAT, LIVER, S-9, PCB; Method: PREINCUBATION
# From the text: The CCRIS database contains chemical records with carcinogenicity, mutagenicity, tumor promotion, and tumor inhibition test results. It was developed by the National Cancer Institute (NCI). Data are derived from studies cited in primary journals, current awareness tools, NCI reports, and other sources. Test results have been reviewed by experts in carcinogenesis and mutagenesis. CCRIS provides historical information from the years 1985 - 2011. It is no longer updated. […]
Calls of active or inactive are those of the source. No rule for the calls is given here.
readout-type: mutagenic call

In [3]: df
Out[3]:
                                    molecule              result
 0                          COc1nncc2cccnc12  inactive; negative
 1      COc1cc2c(c(OC)c1CO)C(=O)c1ccccc1C2=O  inactive; negative
 2                      COc1cccc(C(=O)CBr)c1  inactive; negative
 3           Cc1c(N(C)C)c(=O)n(-c2ccccc2)n1C  inactive; negative
 4             Cc1cnc2cc3nc(N)n(C)c3c(C)c2n1    active; positive
 5                        C1N2CN3CN1CN(C2)C3  inactive; negative
 6             Cc1ccc2c(c1)C(=O)c1ccccc1C2=O  inactive; negative
 7       COCc1c(O)cc2c(c1O)C(=O)c1ccccc1C2=O    active; positive
 8     Nc1ncnc2c1ncn2-c1cccc([N+](=O)[O-])c1    active; positive
 9                            c1cnc2cnncc2c1  inactive; negative
10               CC(N)CCN (stereo not given)  inactive; negative
11           NC1CCCC(N)C1 (stereo not given)  inactive; negative
12                            c1ccc2cnncc2c1  inactive; negative
13                              Nc1cccc(N)n1    active; positive
14                   Nc1ccc(Oc2ccc(N)cc2)cc1    active; positive
15                     CC(=O)Oc1ccccc1C(=O)O  inactive; negative
16                          NNc1nncc2cccnc12    active; positive
17  C[C@H](CCC(=O)O)[C@H]1CC[C@H]2[C@@H]3CC[C@@H]4C[C@@H](O)CC[C@]4(C)[C@H]3CC(=O)[C@]12C  inactive; negative
18                        CC(=O)Nc1ccc(O)cc1  inactive; negative
19    O=C1c2ccccc2C(=O)c2c1cc(O)c(C(=O)O)c2O  inactive; negative
20                               CCN(CC)CCCN  inactive; negative
21  COc1cc(-c2cc(OC)cc(C(C)(C)C)c2O)c(O)c(C(C)(C)C)c1  inactive; negative
22                          Clc1nncc2ncccc12  inactive; negative
23        Nc1ccc(Oc2cccc(Oc3ccc(N)cc3)c2)cc1    active; positive
24                          COc1nncc2cnccc12  inactive; negative

###

# Test system: CCRIS mutagenicity, Ames/micronucleus/aberration tests
# assay-notes: CCRIS mutagenicity studies
# condition-details: Test System: AMES SALMONELLA TYPHIMURIUM; Strain/Indicator: TA1537; Metabolic Activation: NONE; Method: PREINCUBATION
Activity calls are given as the source filed them. The rule behind the calls is not given here.
Outcomes: TRUE = active, FALSE = inactive

In [3]: df
Out[3]:
                           compound_smiles  class_assignment
0              C[n+]1c2ccccc2cc2c(N)cccc21              TRUE
1                      Oc1c(Cl)ccc(Cl)c1Cl             FALSE
2  Nc1cc(S(=O)(=O)O)c2cccc(S(=O)(=O)O)c2c1             FALSE
3                           NCc1ccc(CN)cc1             FALSE
4       O=[N+]([O-])c1cc(Cl)c(Cl)c(Cl)c1Cl             FALSE
5                                 C1COCCO1             FALSE
6       CCCN(CCC)S(=O)(=O)c1ccc(C(=O)O)cc1             FALSE
7                                     OCCO             FALSE

###

# System: CCRIS mutagenicity, Ames/micronucleus/aberration tests
# assay-notes: CCRIS mutagenicity studies
# condition-details: Test System: AMES SALMONELLA TYPHIMURIUM; Strain/Indicator: TA1537; Metabolic Activation: NONE; Method: PREINCUBATION
Active and inactive are the calls of the source. No rule for the calls is given here.
Outcomes: 1 = active, 0 = inactive

In [3]: df
Out[3]:
                                    molecule  class_assignment
 0  O=C1N(CO)C(O)C(O)N1CO (stereo not given)                 0
 1       Nc1c(Br)cc(Br)c2c1C(=O)c1ccccc1C2=O                 1
 2                                        Cl                 0
 3                      CC(C)=CCC/C(C)=C/C=O                 0
 4                        CC(=O)Nc1ccc(O)cc1                 0
 5                               C=CC(=O)OCC                 0
 6                                      CC#N                 0
 7                     Nc1ccc2cc3ccccc3nc2c1                 1
 8                   CCCCCCCCCCCCCCCCCC(N)=O                 0
 9  COc1ccc([N+](=O)[O-])cc1N=Nc1c(O)c(C(=O)Nc2cccc([N+](=O)[O-])c2)cc2ccccc12                 1
10             O=C(O)Cc1ccc([N+](=O)[O-])cc1                 0
11                            O=C(S)c1ccccc1                 0
12                          CCN1CCNC(=O)C1=O                 0
13  CCNC(=O)Nc1ccc(OCC(O)CNC(C)(C)C)c(C(C)=O)c1 (stereo not given)                 0
14                    Cc1cc(=O)oc2cc(O)ccc12                 0

###

# Tested on: CCRIS mutagenicity, Ames/micronucleus/aberration tests
# assay-notes: CCRIS mutagenicity studies
# condition-details: Test System: Mouse lymphoma; Strain/Indicator: L5178Y (tk+/tk-); Metabolic Activation: Rat, Liver, S-9, Aroclor 1254; Method: Suspension/plate
# Source text: The CCRIS database contains chemical records with carcinogenicity, mutagenicity, tumor promotion, and tumor inhibition test results. It was developed by the National Cancer Institute (NCI). Data are derived from studies cited in primary journals, current awareness tools, NCI reports, and other sources. Test results have been reviewed by experts in carcinogenesis and mutagenesis. CCRIS provides historical information from the years 1985 - 2011. It is no longer updated. […]
The source made the active and inactive calls. No rule for the calls is given here.
Outcomes: 1 (yes) for active, 0 (no) for inactive

compound	class-assignment
O=C(C(=O)c1ccccc1)c1ccccc1	0 (no)
O=S(=O)(O)c1ccc(N=Nc2cc(S(=O)(=O)O)c3ccccc3c2O)c2ccccc12	0 (no)
C=COC(C)=O	1 (yes)
Nc1ccn([C@@H]2CS[C@H](CO)O2)c(=O)n1	0 (no)
Nc1cc(S(=O)(=O)O)cc2c1C(=O)/C(=N/Nc1ccc(-c3ccc(N/N=C4/C(=O)c5c(N)cc(S(=O)(=O)O)cc5C=C4S(=O)(=O)O)cc3)cc1)C(S(=O)(=O)O)=C2	0 (no)
C=C1N(C)c2ccccc2C1(C)C	1 (yes)
N#CCCN	0 (no)
c1ccsc1	1 (yes)
Cn1c(-c2ccccc2)c(N=Nc2scc[n+]2C)c2ccccc21	1 (yes)
CCc1c(O)c(=O)ccn1CC	1 (yes)
Cc1nc2ccccc2s1	0 (no)
CCc1ccco1	1 (yes)
C1CC[C@H]2O[C@H]2C1	1 (yes)
CC(C)OC(=O)c1cc(NC(=S)OC(C)C)ccc1Cl	0 (no)
CC(Oc1ccc(Oc2cnc3cc(Cl)ccc3n2)cc1)C(=O)O (stereo not drawn)	1 (yes)
Cc1cc(-c2ccc(N/N=C3/C(=O)c4c(N)cc(S(=O)(=O)O)cc4C=C3S(=O)(=O)O)c(C)c2)ccc1N/N=C1/C(=O)c2c(N)cc(S(=O)(=O)O)cc2C=C1S(=O)(=O)O	0 (no)
CC(=O)/C=C/c1ccccc1	0 (no)
C=C1CC[C@H]2C[C@@H]1C2(C)C	0 (no)
COc1nc(C(Cl)(Cl)Cl)c(Cl)c(OC)c1Cl	1 (yes)
NC(=O)c1nnn(Cc2cc(Cl)c(C(=O)c3ccc(Cl)cc3)c(Cl)c2)c1N	0 (no)
COc1ccc2c(c1)-c1nn(CCCN(C)C)c3ccc([N+](=O)[O-])c(c13)N2	1 (yes)
CC(C)CON=O	1 (yes)
